Please provide measured AC50 for the entries that follow.

(Q) Query AC50 on Growth hormone secretagogue receptor type 1 (Homo sapiens) for COCC1=C(C(=O)O)N2C(=O)[C@@H](NC(=O)/C(=N\OC)c3csc(N)n3)[C@H]2SC1 [CEFPODOXIME]
Sequence (Q92847 whole entry): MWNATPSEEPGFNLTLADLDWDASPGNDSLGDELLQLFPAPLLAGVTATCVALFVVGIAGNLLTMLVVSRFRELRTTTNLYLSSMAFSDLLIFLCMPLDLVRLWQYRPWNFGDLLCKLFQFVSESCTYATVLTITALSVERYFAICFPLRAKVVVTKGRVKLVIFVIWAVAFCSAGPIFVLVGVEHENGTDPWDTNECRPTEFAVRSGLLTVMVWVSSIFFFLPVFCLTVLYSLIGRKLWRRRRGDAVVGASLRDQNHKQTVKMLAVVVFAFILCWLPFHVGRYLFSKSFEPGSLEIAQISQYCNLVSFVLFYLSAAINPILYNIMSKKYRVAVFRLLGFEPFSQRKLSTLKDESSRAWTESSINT
(A) > 30 µM

(Q) What measured AC50 is associated with CCC(=O)O[C@]1(C(=O)SCF)[C@H](C)C[C@H]2[C@@H]3C[C@H](F)C4=CC(=O)C=C[C@]4(C)[C@@]3(F)[C@@H](O)C[C@@]21C [FLUTICASONE PROPIONATE] on Growth hormone secretagogue receptor type 1 (Homo sapiens)?
(A) > 30 µM

(Q) Query the reported AC50 for Growth hormone secretagogue receptor type 1 (Homo sapiens); item: COc1ccc2nc3cc(Cl)ccc3c(Nc3cc(CN4CCCC4)c(O)c(CN4CCCC4)c3)c2n1 [PYRONARIDINE]
(A) 26 µM

(Q) Field: AC50 (Growth hormone secretagogue receptor type 1 (Homo sapiens)). Entry: CC(CCc1ccc(O)cc1)NCCc1ccc(O)c(O)c1 (stereo unspecified) [DOBUTAMINE]
(A) > 30 µM

(Q) Requested read-out AC50, target or system Growth hormone secretagogue receptor type 1 (Homo sapiens), entry Cc1cnc(C(=O)NCCc2ccc(S(=O)(=O)NC(=O)NC3CCCCC3)cc2)cn1 [GLIPIZIDE]; further: assay procedure not described here
(A) > 30 µM

(Q) Reported AC50 for Growth hormone secretagogue receptor type 1 (Homo sapiens), given CN1C(C(=O)Nc2ccccn2)=C(O)c2ccccc2S1(=O)=O [PIROXICAM] ?
(A) > 10 µM

(Q) Item CNC1=Nc2ccc(Cl)cc2C(c2ccccc2)=[N+]([O-])C1 [CHLORDIAZEPOXIDE] with Growth hormone secretagogue receptor type 1 (Homo sapiens) - AC50?
(A) > 30 µM

(Q) Observed AC50 on Growth hormone secretagogue receptor type 1 (Homo sapiens) for Clc1ccc(C(Cn2ccnc2)OCc2ccsc2Cl)c(Cl)c1 (stereo unspecified) [TIOCONAZOLE] , please.
(A) 8.5 µM

(Q) Write down the reported AC50 of CC(=O)OCC(=O)[C@@]1(O)[C@H](C)C[C@H]2[C@@H]3CCC4=CC(=O)C=C[C@]4(C)[C@@]3(F)[C@@H](O)C[C@@]21C [DEXAMETHASONE ACETATE] , test system: Growth hormone secretagogue receptor type 1 (Homo sapiens). Further: assay procedure not described here.
(A) > 30 µM

(Q) Hello, I am looking for reported AC50 with Growth hormone secretagogue receptor type 1 (Homo sapiens) for CC(C)c1nc(N(C)S(C)(=O)=O)nc(-c2ccc(F)cc2)c1/C=C/[C@@H](O)C[C@@H](O)CC(=O)O [ROSUVASTATIN] . Could you help?
(A) > 30 µM

(Q) Any idea what AC50 came out for CC(=O)N[C@@H](CS)C(=O)O [ACETYLCYSTEINE] on Growth hormone secretagogue receptor type 1 (Homo sapiens)?
(A) > 30 µM

(Q) Field: AC50 (Growth hormone secretagogue receptor type 1 (Homo sapiens)). Entry: O=C1CN(/N=C/c2ccc(-c3ccc([N+](=O)[O-])cc3)o2)C(O)=N1 [DANTROLENE]
(A) > 10 µM

(Q) Lab request: please report AC50 under test system Growth hormone secretagogue receptor type 1 (Homo sapiens) for CCN1CCCC1CNC(=O)c1cc(S(=O)(=O)CC)c(N)cc1OC (stereo unspecified) [AMISULPRIDE]; further: assay procedure not described here
(A) > 30 µM

(Q) Please tell me: AC50 of C/C(=C\C(=O)OCCCCCCCCC(=O)O)C[C@@H]1OC[C@H](C[C@@H]2O[C@H]2[C@@H](C)[C@H](C)O)[C@@H](O)[C@H]1O [MUPIROCIN] , system Growth hormone secretagogue receptor type 1 (Homo sapiens)?; further: assay procedure not described here
(A) > 10 µM

(Q) Provide the documented AC50 with Growth hormone secretagogue receptor type 1 (Homo sapiens) as the system for COc1ccccc1OCCNCC(O)COc1cccc2[nH]c3ccccc3c12 (stereo unspecified) [CARVEDILOL]
(A) 14.1 µM

(Q) What reported AC50 corresponds to CCOC(=O)O[C@]1(C(=O)OCCl)CC[C@H]2[C@@H]3CCC4=CC(=O)C=C[C@]4(C)[C@H]3[C@@H](O)C[C@@]21C [LOTEPREDNOL ETABONATE] on Growth hormone secretagogue receptor type 1 (Homo sapiens)?
(A) > 30 µM

All values here come from ChEMBL document CHEMBL5291721.
